test system: Enterococcus sp.; test: In vitro antibacterial evaluation: minimum inhibitory concentration (MIC), broth dilution method; assay type: cell-based; settings: Enterococcus faecalis (GC 4552); 18 hours at 35° C.
assay-metric: MIC Enterococcus faecalis (GC 4552)

Example entries begin here.
* CC(c1ccccc1)C1NC(=O)CNC(=O)C(CO)NC(=O)C(C(O)C2CN(c3ncccn3)C(=N)N2C2OC(CO)C(O)C(O)C2O)NC(=O)C(C(O)C2CNC(=Nc3ncccn3)N2)NC(=O)C(Cc2ccc(OC3OC(CO)C(OC4OC5COC6(OC5C(O)C4O)C4CC5CC(C4)CC6C5)C(O)C3O)cc2)NC1=O (stereo not shown) | 32 µg/mL
* CC(c1ccccc1)C1NC(=O)CNC(=O)C(CO)NC(=O)C(C(O)C2CN(Cc3ccc(C(F)(F)F)cc3)C(=N)N2C2OC(CO)C(O)C(O)C2O)NC(=O)C(C(O)C2CNC(=N)N2)NC(=O)C(Cc2ccc(OC3OC(CO)C(OC4OC5COC6(OC5C(O)C4O)C4CC5CC(C4)CC6C5)C(O)C3O)cc2)NC1=O (stereo not shown) | 32 µg/mL
* CC(c1ccccc1)C1NC(=O)CNC(=O)C(CO)NC(=O)C(C(O)C2CNC(=N)N2C2OC(CO)C(O)C(O)C2O)NC(=O)C(C(O)C2CNC(=N)N2)NC(=O)C(Cc2ccc(OC3OC(CO)C(OC4OC5COC(c6ccccc6)OC5C(O)C4O)C(O)C3O)c(I)c2)NC1=O (stereo not shown) | >64 µg/mL

// next item, MIC Enterococcus faecalis (GC 4552) requested
Reading of MIC Enterococcus faecalis (GC 4552) for N=C1NCC(C(O)C2NC(=O)C(Cc3ccc(OC4OC(CO)C(OC5OC6COC7(OC6C(O)C5O)C5CC6CC(C5)CC7C6)C(O)C4O)cc3)NC(=O)C(Cc3ccccc3)NC(=O)CNC(=O)C(CO)NC(=O)C(C(O)C3CNC(=N)N3C3OC(CO)C(O)C(O)C3O)NC2=O)N1 (stereo not shown) with Enterococcus sp.: 2 µg/mL

The measurements presented in this section are drawn from patent US8247211B2.
